Data credit: patent US11365192B2

- MEASURED_TARGET: human CYP4F2 (Homo sapiens (Human), UniProt P78329)
- Sequence (P78329 5-520): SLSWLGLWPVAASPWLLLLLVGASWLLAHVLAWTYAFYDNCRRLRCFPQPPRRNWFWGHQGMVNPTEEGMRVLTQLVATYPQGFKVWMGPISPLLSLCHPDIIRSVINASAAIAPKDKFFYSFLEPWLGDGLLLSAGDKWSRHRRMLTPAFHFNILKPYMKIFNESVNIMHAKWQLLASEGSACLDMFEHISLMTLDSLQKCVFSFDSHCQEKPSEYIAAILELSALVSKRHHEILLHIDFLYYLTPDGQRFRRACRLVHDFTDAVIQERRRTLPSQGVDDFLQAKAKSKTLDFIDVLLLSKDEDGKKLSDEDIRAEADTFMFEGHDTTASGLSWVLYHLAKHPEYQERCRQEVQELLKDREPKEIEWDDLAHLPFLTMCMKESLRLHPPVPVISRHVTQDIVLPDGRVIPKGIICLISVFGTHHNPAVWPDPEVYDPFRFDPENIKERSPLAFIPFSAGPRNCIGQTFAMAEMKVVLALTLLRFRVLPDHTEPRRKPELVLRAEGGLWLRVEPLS
- PROCEDURE_DETAILS: Inhibition test against 20-HETE producing enzyme CYP4F2 (luciferine derivative, luminescence)
- Type: biochemical
- CONDITION: E. coli membrane fraction expressing human CYP4F2, 2.5 μM luciferine derivative, room temperature 60 minutes
pIC50: −log10 of the molar value.
QUANTITY: pIC50

Examples from the recorded data:
{"SMILES_REPR": "O=C(O)Cc1cccc(COc2ccc(-c3ccns3)nc2)c1", "MEASURED": 4.89}
{"SMILES_REPR": "O=C(O)Cn1cc(-c2cccc(COc3ccc(-c4ccn[nH]4)nc3)c2)ccc1=O", "MEASURED": 5.80}
{"SMILES_REPR": "O=C(O)C1(CCCCOc2ccc(-c3ccn[nH]3)nc2)CCC1", "MEASURED": 4.82}

A: O=C(O)Cc1cccc(COc2ccc(-c3cncs3)nc2)c1
B: O=C(O)c1cc(COc2ccc(-c3n[nH]cc3Cl)nc2)ccn1
*Q* Which value of pIC50 is numerically greater: that of A or that of B ? Lab note: record the label of whichever item you select.
*A* B
(B: 5.43, A: 5.09)
